Target: Sodium-dependent serotonin transporter (Homo sapiens, UniProt P31645)
Sequence (P31645 whole entry, looked up): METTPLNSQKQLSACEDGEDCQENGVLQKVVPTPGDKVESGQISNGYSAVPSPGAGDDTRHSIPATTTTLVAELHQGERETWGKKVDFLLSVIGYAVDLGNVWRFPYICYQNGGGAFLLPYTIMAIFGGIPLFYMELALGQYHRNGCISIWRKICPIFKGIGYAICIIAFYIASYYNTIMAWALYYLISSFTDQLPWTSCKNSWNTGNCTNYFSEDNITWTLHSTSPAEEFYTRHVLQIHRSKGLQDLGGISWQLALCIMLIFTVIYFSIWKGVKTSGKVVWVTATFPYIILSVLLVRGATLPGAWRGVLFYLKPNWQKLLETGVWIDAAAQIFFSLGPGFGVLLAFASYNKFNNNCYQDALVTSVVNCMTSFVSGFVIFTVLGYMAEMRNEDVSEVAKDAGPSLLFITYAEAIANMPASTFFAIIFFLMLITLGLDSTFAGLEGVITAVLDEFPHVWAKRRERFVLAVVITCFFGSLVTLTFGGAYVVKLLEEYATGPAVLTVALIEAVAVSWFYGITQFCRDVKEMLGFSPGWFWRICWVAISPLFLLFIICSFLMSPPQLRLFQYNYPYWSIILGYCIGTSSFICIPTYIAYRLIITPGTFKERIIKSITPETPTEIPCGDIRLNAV
Assay: Displacement of [3H]imipramin from human recombinant SERT over-expressed in HEK293 cells at 10 uM
Format: cell-based
Label T for high-side inhibition (at or above 50%) and F for low-side inhibition (below it).

Prompt line: API: above_or_equal(metric=inhibition, cutoff=50%) for item O=C1NCC(c2ccc(Cl)cc2)C1c1ccc2ccccc2c1 (stereo unspecified)
Response line: T

Prompt line: API: above_or_equal(metric=inhibition, cutoff=50%) for item O=C1NCC(c2ccccc2Cl)C1c1ccc2ccccc2c1 (stereo unspecified)
Response line: T

Prompt line: API: above_or_equal(metric=inhibition, cutoff=50%) for item O=C1NCC(c2ccc(Cl)c(Cl)c2)C1c1ccc(Cl)cc1 (stereo unspecified)
Response line: T

Prompt line: API: above_or_equal(metric=inhibition, cutoff=50%) for item O=C1NCC(c2ccc(Cl)c(Cl)c2)C1c1cccc(Cl)c1 (stereo unspecified)
Response line: T

Prompt line: API: above_or_equal(metric=inhibition, cutoff=50%) for item O=C1NCC(c2ccc(Cl)c(Cl)c2)C1c1ccc2ccccc2c1 (stereo unspecified)
Response line: T

Prompt line: API: above_or_equal(metric=inhibition, cutoff=50%) for item Clc1ccc2c(c1Cl)CC[C@H]1NC[C@H](c3ccccc3)[C@@H]21
Response line: F

Prompt line: API: above_or_equal(metric=inhibition, cutoff=50%) for item O=C1NCC(c2cccc(Cl)c2)C1c1ccccc1 (stereo unspecified)
Response line: T

Prompt line: API: above_or_equal(metric=inhibition, cutoff=50%) for item O=C1NCC(c2ccc(Cl)cc2)C1c1ccccc1 (stereo unspecified)
Response line: F

Prompt line: API: above_or_equal(metric=inhibition, cutoff=50%) for item O=C1NCC(c2ccc(Cl)cc2)C1c1ccc(Cl)c(Cl)c1 (stereo unspecified)
Response line: T

Prompt line: API: above_or_equal(metric=inhibition, cutoff=50%) for item O=C1NCC(c2ccc(Cl)c(Cl)c2)C1c1ccccc1Cl (stereo unspecified)
Response line: T

Prompt line: API: above_or_equal(metric=inhibition, cutoff=50%) for item O=C1NCC(c2ccccc2Cl)C1c1ccccc1 (stereo unspecified)
Response line: F

Prompt line: API: above_or_equal(metric=inhibition, cutoff=50%) for item O=C1NCC(c2cccc(Cl)c2)C1c1cccc(Cl)c1 (stereo unspecified)
Response line: F

Prompt line: API: above_or_equal(metric=inhibition, cutoff=50%) for item Clc1ccc2c(c1)CC[C@H]1NC[C@H](c3ccccc3)[C@@H]21
Response line: F

Prompt line: API: above_or_equal(metric=inhibition, cutoff=50%) for item O=C1NCC(c2cccc(Cl)c2)C1c1ccccc1Cl (stereo unspecified)
Response line: F

Prompt line: API: above_or_equal(metric=inhibition, cutoff=50%) for item O=C1NCC(c2ccccc2Cl)C1c1ccc(Cl)c(Cl)c1 (stereo unspecified)
Response line: F

Prompt line: API: above_or_equal(metric=inhibition, cutoff=50%) for item Clc1ccc2c(c1)[C@@H]1[C@@H](c3ccccc3)CN[C@@H]1CC2
Response line: F

Prompt line: API: above_or_equal(metric=inhibition, cutoff=50%) for item Clc1cccc2c1CC[C@H]1NC[C@H](c3ccccc3)[C@@H]21
Response line: F

Prompt line: API: above_or_equal(metric=inhibition, cutoff=50%) for item O=C1NCC(c2ccc(Cl)c(Cl)c2)C1c1ccc(Cl)c(Cl)c1 (stereo unspecified)
Response line: F

Prompt line: API: above_or_equal(metric=inhibition, cutoff=50%) for item O=C1NCC(c2ccc(Cl)cc2)C1c1cccc(Cl)c1 (stereo unspecified)
Response line: F

Prompt line: API: above_or_equal(metric=inhibition, cutoff=50%) for item O=C1NCC(c2ccccc2Cl)C1c1ccccc1Cl (stereo unspecified)
Response line: F

Prompt line: API: above_or_equal(metric=inhibition, cutoff=50%) for item O=C1NCC(c2cccc(Cl)c2)C1c1ccc(Cl)c(Cl)c1 (stereo unspecified)
Response line: T

Prompt line: API: above_or_equal(metric=inhibition, cutoff=50%) for item O=C1NCC(c2ccccc2Cl)C1c1ccc(Cl)cc1 (stereo unspecified)
Response line: F

Prompt line: API: above_or_equal(metric=inhibition, cutoff=50%) for item O=C1NCC(c2ccc(Cl)cc2)C1c1ccc(Cl)cc1 (stereo unspecified)
Response line: T

The reported measurements were obtained from ChEMBL document CHEMBL2429823.
